- EXPERIMENTAL_TARGET: TNFα (Homo sapiens, UniProt P01375)
- Sequence (P01375 77-233 limits assumed): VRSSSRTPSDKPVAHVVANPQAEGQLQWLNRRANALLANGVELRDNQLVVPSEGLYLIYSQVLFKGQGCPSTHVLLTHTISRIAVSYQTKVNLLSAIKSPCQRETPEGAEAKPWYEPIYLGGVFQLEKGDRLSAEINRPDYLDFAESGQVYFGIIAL
- ASSAY_EXPLANATION: TNFα Induced HEK Blue Cellular Assay
- Assay type: cell-based
- EXPERIMENTAL_SETUP: HEK Blue TNFα reporter cells, TNFα 100 pg/ml, 24 hrs at 37° C., secreted alkaline phosphatase (QUANTI-Blue) read at 620 nm; read-out: IC50 value
pIC50: −log10 of the molar value.
Overview of recorded pIC50 for various molecules

The cases that follow already have their pIC50 on record.
[2H]C([2H])([2H])N1C(=O)c2cccc(OC(F)F)c2[C@H]2C[C@@H]1c1nc3cc(F)c(-c4ccc(P(C)(C)=O)cc4F)cc3n12 [Example 61]	> 7.00
[2H]C([2H])([2H])N1C(=O)c2cccc(OC(F)F)c2[C@H]2C[C@@H]1c1nc3ccc(-c4ccc(C(C)P(C)(C)=O)c(F)c4)cc3n12 (single isomer, unassigned) [Example 100]	> 7.00

Continue with the next molecule.
Provide one value: measured pIC50 of [2H]C([2H])([2H])N1C(=O)c2cccc(OC(F)F)c2[C@H]2C[C@@H]1c1nc3ccc(-c4ccc(P(C)(C)=O)cc4)cc3n12 [Example 65]
> 7.00

----------
- EXPERIMENTAL_TARGET: TNFα (Homo sapiens, UniProt P01375)
- ASSAY_EXPLANATION: TNFα Induced HEK Blue Cellular Assay
- Assay type: cell-based
- EXPERIMENTAL_SETUP: HEK Blue TNFα reporter cells, TNFα 100 pg/ml, 24 hrs at 37° C., secreted alkaline phosphatase (QUANTI-Blue) read at 620 nm; read-out: IC50 value
- Procedure: TNFα Induced HEK Blue Cellular Assay Test articles were diluted in DMSO and serially diluted into 384 well assay plate (Corning 3765), at final concentrations ranging from 30 mM to 0.5 nM. […]
Overview of recorded IC50 for various compounds

The cases that follow already have their IC50 on record.
[2H]C([2H])([2H])N1C(=O)c2cccc(OC(F)F)c2[C@H]2C[C@@H]1c1nc3ccc(-c4ccc(P(C)(C)=O)c(Cl)n4)cc3n12	100 to 1000 nM
CP(C)(=O)c1ccc(-c2cc3c(cc2F)nc2n3[C@@H]3C[C@H]2NC(=O)c2cccc(OC(F)F)c23)cc1F	< 100 nM
CCN1C(=O)c2cccc(OC(F)F)c2[C@H]2C[C@@H]1c1nc3ccc(-c4ccc(OCP(C)(C)=O)cc4)cc3n12	< 100 nM

Write down measured IC50 (TNFα (Homo sapiens, UniProt P01375)) for this compound. "[2H]C([2H])([2H])N1C(=O)c2cccc(OC(F)F)c2[C@H]2C[C@@H]1c1nc3ccc(-c4cc(F)c(P(C)(C)=O)c(F)c4)cc3n12"
< 100 nM

Write down measured IC50 (TNFα (Homo sapiens, UniProt P01375)) for this compound. "[2H]C([2H])([2H])N1C(=O)c2cccc(OC(F)F)c2[C@H]2C[C@@H]1c1nc3cc(F)c(-c4ccc(P(C)(C)=O)cc4)cc3n12"
100 to 1000 nM

Write down measured IC50 (TNFα (Homo sapiens, UniProt P01375)) for this compound. "[2H]C([2H])([2H])N1C(=O)c2cccc(OC(F)F)c2[C@H]2C[C@@H]1c1nc3ccc(-c4ccc(P(C)(C)=O)c(F)c4)nc3n12"
< 100 nM

Write down measured IC50 (TNFα (Homo sapiens, UniProt P01375)) for this compound. "CP(C)(=O)c1ccc(-c2ccc3nc4n(c3c2)[C@@H]2C[C@H]4NC(=O)c3cccc(OC(F)F)c32)c(F)c1F"
< 100 nM

Write down measured IC50 (TNFα (Homo sapiens, UniProt P01375)) for this compound. "[2H]C([2H])([2H])N1C(=O)c2cccc(OC(F)F)c2[C@H]2C[C@@H]1c1nc3ccc(-c4ccc(P(C)(C)=O)c(C)c4)cc3n12"
< 100 nM

Write down measured IC50 (TNFα (Homo sapiens, UniProt P01375)) for this compound. "CP(C)(=O)COc1ncc(-c2ccc3nc4n(c3c2)[C@@H]2C[C@H]4NC(=O)c3cccc(OC(F)F)c32)cn1"
1000 to 10000 nM

Write down measured IC50 (TNFα (Homo sapiens, UniProt P01375)) for this compound. "CN1C(=O)c2cccc(OC(F)F)c2[C@H]2C[C@@H]1c1nc3ccc(-c4ccc(NP(C)(C)=O)cc4)cc3n12"
< 100 nM

Write down measured IC50 (TNFα (Homo sapiens, UniProt P01375)) for this compound. "CN1C(=O)c2cccc(OC(F)F)c2[C@H]2C[C@@H]1c1nc3ccc(-c4ccc(OCP(C)(C)=O)cc4)cc3n12"
< 100 nM

Write down measured IC50 (TNFα (Homo sapiens, UniProt P01375)) for this compound. "CN1C(=O)c2cccc(OC(F)F)c2[C@H]2C[C@@H]1c1nc3ccc(-c4ccc(OCP(C)(C)=O)nc4)cc3n12"
< 100 nM

Write down measured IC50 (TNFα (Homo sapiens, UniProt P01375)) for this compound. "[2H]C([2H])([2H])N1C(=O)c2cccc(OC(F)F)c2[C@H]2C[C@@H]1c1nc3ccc(-c4ccc(C(F)(F)P(C)(C)=O)cc4)cc3n12"
< 100 nM

----------
- EXPERIMENTAL_TARGET: TNFα (Homo sapiens, UniProt P01375)
- ASSAY_EXPLANATION: TNFα Induced HEK Blue Cellular Assay
- Format: cell-based
- EXPERIMENTAL_SETUP: HEK Blue TNFα reporter cells, TNFα 100 pg/ml, 24 hrs at 37° C., secreted alkaline phosphatase (QUANTI-Blue) read at 620 nm; read-out: IC50 value
pIC50: −log10 of the molar value.
MEASURED_ENDPOINT: pIC50

[2H]C([2H])([2H])N1C(=O)c2cccc(OC(F)F)c2[C@H]2C[C@@H]1c1nc3ccc(-c4cc(F)c(P(C)(C)=O)cc4C)cc3n12 [Example 88]	> 7.00
[2H]C([2H])([2H])N1C(=O)c2cccc(OC(F)F)c2[C@H]2C[C@@H]1c1nc3ccc(-c4cnc(P(C)(C)=O)cc4Cl)cc3n12 [Example 93]	> 7.00

Provide one value: measured pIC50 of [2H]C([2H])([2H])N1C(=O)c2cccc(OC(F)F)c2[C@H]2C[C@@H]1c1nc3ccc(-c4ccc(C(O)P(C)(C)=O)cc4)cc3n12 (stereo partly drawn) [Example 84]
> 7.00

----------
- EXPERIMENTAL_TARGET: TNFα (Homo sapiens, UniProt P01375)
- ASSAY_EXPLANATION: TNFα Induced HEK Blue Cellular Assay
- Type: cell-based
- EXPERIMENTAL_SETUP: HEK Blue TNFα reporter cells, TNFα 100 pg/ml, 24 hrs at 37° C., secreted alkaline phosphatase (QUANTI-Blue) read at 620 nm; read-out: IC50 value
Overview of recorded IC50 for various molecules

Provide one value: measured IC50 of [2H]C([2H])([2H])N1C(=O)c2cccc(OC(F)F)c2[C@H]2C[C@@H]1c1nc3ccc(-c4ccc([C@@H](C)P(C)(C)=O)c(F)c4C)cc3n12 (single isomer, unassigned) [Example 113]
< 0.1 µM

Provide one value: measured IC50 of CCN1C(=O)c2cccc(OC(F)F)c2[C@H]2C[C@@H]1c1nc3ccc(-c4ccc(P(C)(C)=O)cc4)cc3n12 [Example 49]
< 0.1 µM

Provide one value: measured IC50 of CN1C(=O)c2cccc(OC(F)F)c2[C@H]2C[C@@H]1c1nc3ccc(-c4ccc(OCP(C)(C)=O)c(F)c4)cc3n12 [Example 18]
< 0.1 µM

Provide one value: measured IC50 of [2H]C([2H])([2H])N1C(=O)c2cccc(OC(F)F)c2[C@H]2C[C@@H]1c1nc3ccc(-c4ccc(P(C)(C)=O)c(F)c4C)cc3n12 [Example 90]
< 0.1 µM

Provide one value: measured IC50 of [2H]C([2H])([2H])N1C(=O)c2cccc(OC(F)F)c2[C@H]2C[C@@H]1c1nc3ccc(-c4ccc(C(C)(O)P(C)(C)=O)cc4)cc3n12 (single isomer, unassigned) [Example 110]
< 0.1 µM

----------
- EXPERIMENTAL_TARGET: TNFα (Homo sapiens, UniProt P01375)
- ASSAY_EXPLANATION: TNFα Induced HEK Blue Cellular Assay
- Assay type: cell-based
- EXPERIMENTAL_SETUP: HEK Blue TNFα reporter cells, TNFα 100 pg/ml, 24 hrs at 37° C., secreted alkaline phosphatase (QUANTI-Blue) read at 620 nm; read-out: IC50 value
MEASURED_ENDPOINT: IC50

CP(C)(=O)COc1ccc(-c2ccc3nc4n(c3c2)[C@@H]2C[C@H]4NC(=O)c3cccc(OC(F)F)c32)cn1	1000 to 10000 nM

Provide one value: measured IC50 of "CN1C(=O)c2cccc(OC(F)F)c2[C@H]2C[C@@H]1c1nc3ccc(-c4ccc(P(C)(C)=O)cc4)cc3n12"
< 100 nM

Provide one value: measured IC50 of "[2H]C([2H])([2H])N1C(=O)c2cccc(OC(F)F)c2[C@H]2C[C@@H]1c1nc3ccc(-c4ccc(P(C)(C)=O)c(C)c4F)cc3n12"
< 100 nM
